- Test system: HIV (S5G7, subclone of HTLVIIIB)
- Protocol details: microbe, parasite or virus in culture
- Type: cell-based
- Conditions used: PBMC, 7 days after infection; read-out: IC50 50% Reduction in Reverse Transcriptase Activity PBMC
Metric name: IC50 (µM)
The response must be a number in µM with no trailing unit.

Give its IC50 value. Item: COCCCCCCCCCCCC(=O)O [12MO, 12-methoxydodecanoic acid, reference compound]
19
